- Target: Recombinant human his-tagged IGF 1R extracellular domain protein (human) (UniProt P08069)
- Test Method Notes: SPR, captured IgG, IGF-1R ECD-his analyte, dissociation pH 7.4
Metric: Kd (nM)
Answers are plain numbers, in nM.

VRDN-02515 (antibody, V domains shown) VH: EVQLVQSGGGLVKPGGSLRLSCAASGFTFSSFAMHWVRQAPGKGLEWISVIDTRGAHYYADSVKGRFTISRDNAKNSLYLQMNSLRAEDTAVYYCARLGNFYYGMDVWGQGTTVTVSS VL: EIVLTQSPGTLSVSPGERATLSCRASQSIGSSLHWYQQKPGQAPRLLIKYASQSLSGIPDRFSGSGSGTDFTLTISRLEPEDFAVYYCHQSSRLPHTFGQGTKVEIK | 0.571

Please turn your attention to the following entry.
Could you share which Kd value was measured for VRDN-02505 (antibody, V domains shown) VH: EVQLVQSGGGLVKPGGSLRLSCAASGFTFHSFAMHWVRQAPGKGLEWISVIDTRGATYYADSVKGRFTISRDNAKNSLYLQMNSLRAEDTAVYYCARLGNFYYGMDVWGQGTTVTVSS VL: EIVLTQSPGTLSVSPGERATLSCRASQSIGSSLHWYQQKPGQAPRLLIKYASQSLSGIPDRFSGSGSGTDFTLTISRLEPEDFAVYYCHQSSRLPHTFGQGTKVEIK ?
2.6
